Hi there, I'd appreciate the recorded log10 of IC50 for every entry that follows.
System: HEK 293T cells
TEST_DESCRIPTION: HEK293T cell proliferation assay ([3H]-thymidine incorporation)
Assay type: cell-based, human
ASSAY_SETUP: Homo sapiens; anti-proliferative activity, HEK 293T cells, 24 h drug exposure; read-out: IC50 ± SEM
For clarity, the numbers are log10 values of IC50 expressed in nM.

Input line: Entry CC(C)[C@]12O[C@H]1[C@@H]1O[C@]13[C@]1(O[C@H]1C[C@H]1C4=C(CC[C@@]13C)C(=O)OC4)[C@@H]2OC(=O)CCC(=O)OCC1OC(O)C(O)C(O)[C@@H]1O (some centres unmarked) [Compound 8] : reported log10 of IC50 = ?
Output line: 2.39

Input line: Entry CC(C)[C@]12O[C@H]1[C@@H]1O[C@]13[C@]1(O[C@H]1C[C@H]1C4=C(CC[C@@]13C)C(=O)OC4)[C@@H]2OC(=O)CCCC(=O)O[C@@H]1OC(CO)[C@@H](O)C(O)C1O (some centres unmarked) [Compound 6] : reported log10 of IC50 = ?
Output line: 3.05

Input line: Entry CC(C)[C@]12O[C@H]1[C@@H]1O[C@]13[C@]1(O[C@H]1C[C@H]1C4=C(CC[C@@]13C)C(=O)OC4)[C@@H]2OC(=O)CCCC(=O)O[C@H]1OC(CO)[C@@H](O)C(O)C1O (some centres unmarked) [Compound 7] : reported log10 of IC50 = ?
Output line: 2.87

Input line: Entry CC(C)[C@]12O[C@H]1[C@@H]1O[C@]13[C@]1(O[C@H]1C[C@H]1C4=C(CC[C@@]13C)C(=O)OC4)[C@@H]2OC(=O)c1ccccc1C(=O)O[C@H]1OC(CO)[C@@H](O)C(O)C1O (some centres unmarked) [Compound 5] : reported log10 of IC50 = ?
Output line: 3.82

Input line: Entry CO[C@H]1OC(COC(=O)CCC(=O)O[C@@H]2[C@@]3(C(C)C)O[C@H]3[C@@H]3O[C@]34[C@]23O[C@H]3C[C@H]2C3=C(CC[C@@]24C)C(=O)OC3)[C@@H](O)C(O)C1O (some centres unmarked) [Compound 9] : reported log10 of IC50 = ?
Output line: 2.60
